System: NCI-H460
procedure-text: Cytotoxicity against human NCI-H460 cells after 72 hrs by SRB assay
Format: functional, cell-based
test-settings: NCI-H460, 72 h
1 (yes) if IC50 is below 4 µM. 0 (no) if not; exact matches included in 0 (no).

- molecule: "C=C1CCCC(C)(C)C1CC[C@@]1(C)c2c(O)cc3c(c2O[C@@H]1C)C(=O)C=C(OC)C3=O (stereo partly specified)"
  tested-system: "NCI-H460"
  label-value: "1 (yes)"
- molecule: "C=C1CCCC(C)(C)C1CC[C@]1(C)c2c(O)cc3c(c2O[C@@H]1CO)C(=O)C=C(OC)C3=O (stereo partly specified)"
  tested-system: "NCI-H460"
  label-value: "0 (no)"
- molecule: "C=C1CCCC(C)(C)C1CC[C@@]1(C)c2c(O)cc3c(c2O[C@@H]1CO)C(=O)C=C(OC)C3=O (stereo partly specified)"
  tested-system: "NCI-H460"
  label-value: "0 (no)"
- molecule: "C=C1CCCC(C)(C)C1CC[C@]1(C)c2c(O)cc3c(c2O[C@@H]1C)C(=O)C=C(OC)C3=O (stereo partly specified)"
  tested-system: "NCI-H460"
  label-value: "0 (no)"
- molecule: "CC(C)=CCC/C(C)=C/COc1cccc2nc3c(O)cccc3nc12"
  tested-system: "NCI-H460"
  label-value: "0 (no)"
- molecule: "COc1cccc2nc3c(OC/C=C(\\C)CCC=C(C)C)cccc3nc12"
  tested-system: "NCI-H460"
  label-value: "0 (no)"

---

System: Micrococcus luteus
procedure-text: Antibacterial activity against Micrococcus luteus by broth microdilution method
Type: functional
MIC for assorted compounds
reported-endpoint: MIC

- compound: "C=C1CCCC(C)(C)C1CC[C@@]1(C)c2c(O)cc3c(c2O[C@@H]1CO)C(=O)C=C(OC)C3=O (stereo partly drawn)"
  measured-result: "> 128 µg/mL"
- compound: "C=C1CCCC(C)(C)C1CC[C@]1(C)c2c(O)cc3c(c2O[C@@H]1CO)C(=O)C=C(OC)C3=O (stereo partly drawn)"
  measured-result: "> 128 µg/mL"
- compound: "NC[C@H]1O[C@H](O[C@H]2[C@H](O)[C@@H](O[C@H]3O[C@H](CO)[C@@H](O)[C@H](N)[C@H]3O)[C@H](N)C[C@@H]2N)[C@H](O)[C@@H](O)[C@@H]1O"
  measured-result: "0.5 µg/mL"
- compound: "C=C1CCCC(C)(C)C1CC[C@@]1(C)c2c(O)cc3c(c2O[C@@H]1C)C(=O)C=C(OC)C3=O (stereo partly drawn)"
  measured-result: "> 128 µg/mL"
- compound: "CC1(C)S[C@@H]2[C@H](NC(=O)[C@H](N)c3ccccc3)C(=O)N2[C@H]1C(=O)O"
  measured-result: "2 µg/mL"
- compound: "COc1cccc2nc3c(OC/C=C(\\C)CCC=C(C)C)cccc3nc12"
  measured-result: "> 128 µg/mL"
- compound: "C=C1CCCC(C)(C)C1CC[C@]1(C)c2c(O)cc3c(c2O[C@@H]1C)C(=O)C=C(OC)C3=O (stereo partly drawn)"
  measured-result: "> 128 µg/mL"
- compound: "CC(C)=CCC/C(C)=C/COc1cccc2nc3c(O)cccc3nc12"
  measured-result: "> 128 µg/mL"
